- ASSAY_METHOD_TEXT: Brain compound levels 2 hours after the last dose in efficacy studies
- Assay type: in vivo, mice
- TEST_PARAMETERS: E4FAD, mouse, brain; 56-day study, oral 40 mg/kg/day, n = 16; read-out: Brain level 2 hours after the last dose
EXPERIMENTAL_ENDPOINT: concentration at 2 h

Exam item: // query concentration at 2 h value for entry CC(N)C(=O)OC(C)(C)Cc1ccc(Cl)cc1 (stereo not shown) [A03, alaproclate]
Marked response: ~700 ng/g

----------
- ASSAY_METHOD_TEXT: Pharmacokinetics after subcutaneous (SQ) injection in mice
- Assay type: in vivo
- TEST_PARAMETERS: mouse, brain, subcutaneous; mice, SQ 10 mg/Kg; read-out: Cmax in brain as molar concentration
EXPERIMENTAL_ENDPOINT: Cmax

Exam item: // query Cmax value for entry CC(N)C(=O)OC(C)(C)Cc1ccc(Cl)cc1 (stereo not shown) [A03, alaproclate]
Marked response: ~10 µM

----------
- ASSAY_METHOD_TEXT: Pharmacokinetics after subcutaneous (SQ) injection in mice
- Type: in vivo
- TEST_PARAMETERS: mouse, brain, subcutaneous; mice, SQ 10 mg/kg, n = 1; read-out: Cmax in brain
EXPERIMENTAL_ENDPOINT: Cmax

Exam item: // query Cmax value for entry C[C@H](N)C(=O)OC(C)(C)Cc1ccc(Cl)cc1 [E1]
Marked response: ~5800 ng/g

----------
- System: SirT1 levels in N2a-E4 cells
- ASSAY_METHOD_TEXT: SirT1 AlphaLISA in N2a-E4 cells (HTS, secondary and dose-response testing)
- Type: cell-based, murine
- TEST_PARAMETERS: Mus musculus, read-out: EC50 for enhancement of SirT1, N2a-E4 cells, dose-response curve, n = 3 at each concentration
EXPERIMENTAL_ENDPOINT: pEC50
One number for each entry, as −log10 of the molar value.

Exam item: // query pEC50 value for entry CC(N)C(=O)OC(C)(C)Cc1ccc(Cl)cc1 (stereo not shown) [A03, alaproclate]
Marked response: 5.64
